target: T1, monomeric recombinant cynomologus monkey Notch3 extracellular domain (containing EGF like domains 1-12) … (cynomologus monkey); test: SPR BIAcore T100, antibody captured by anti-human IgG Fc, monomeric rcNotch3 analyte, 37 C
T1 construct: domain: EGF like domains 1-12; also called monomeric rcNotch3
readout type: koff (s⁻¹)
Give just the number in s⁻¹; leave the unit off.

Known koff results, listed for orientation:
- Hu4F11-74 (antibody, human IgG1, kappa, V domains shown, Humanized, human IgG1 kappa; Hv3-23 A28T S31H T62S heavy + Kv2D-29 N28Y kappa) VH: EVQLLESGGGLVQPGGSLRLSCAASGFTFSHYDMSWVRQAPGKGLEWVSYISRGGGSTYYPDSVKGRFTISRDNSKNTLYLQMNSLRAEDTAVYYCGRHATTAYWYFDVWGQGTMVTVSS VL: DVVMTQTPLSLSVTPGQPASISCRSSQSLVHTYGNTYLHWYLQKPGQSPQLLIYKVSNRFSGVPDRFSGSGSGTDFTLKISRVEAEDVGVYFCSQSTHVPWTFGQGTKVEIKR: 0.0045
- Hu4F11-75 (antibody, human IgG1, kappa, V domains shown, Humanized, human IgG1 kappa; Hv3-23 A28T T62S heavy + Kv2D-29 N28Y kappa) VH: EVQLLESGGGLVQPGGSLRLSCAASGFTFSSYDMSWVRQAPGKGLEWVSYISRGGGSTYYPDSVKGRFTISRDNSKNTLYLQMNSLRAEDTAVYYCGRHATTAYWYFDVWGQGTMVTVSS VL: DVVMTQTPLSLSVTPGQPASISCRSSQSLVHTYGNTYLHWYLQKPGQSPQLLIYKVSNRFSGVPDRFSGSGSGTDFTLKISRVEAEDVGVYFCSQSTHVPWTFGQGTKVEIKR: 0.0089

Moving on to the next binder.
Query :: Look up koff: Hu4F11-69 (antibody, human IgG1, kappa, V domains shown, Humanized, human IgG1 kappa; Hv3-23 A28T S31N T62S heavy + Kv2D-29 N28H kappa) VH: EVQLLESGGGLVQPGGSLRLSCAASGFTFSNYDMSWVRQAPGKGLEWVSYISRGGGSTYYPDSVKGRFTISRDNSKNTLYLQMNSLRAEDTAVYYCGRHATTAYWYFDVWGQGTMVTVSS VL: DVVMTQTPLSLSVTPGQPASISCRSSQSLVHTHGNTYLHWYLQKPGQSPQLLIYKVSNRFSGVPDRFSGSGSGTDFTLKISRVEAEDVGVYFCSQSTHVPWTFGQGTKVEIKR
Result :: 0.0038

Source listed as patent US20180230213A1.
